Some compounds, each annotated with its measured pIC50.
- Tested on: T. cruzi-infected H9C2 cardiomyocytes, high-content imaging
- experiment: intracellular T. cruzi amastigote inhibition, imaging, H9C2 host cardiomyocytes, host toxicity (AID 1159565);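 also: infected cells incubated 72 h after plating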
- test_settings: measured here: amastigotes per cell
pIC50 here: minus log base 10 of the concentration, concentration in moles per litre.

Query :: Record lookup: for T. cruzi-infected H9C2 cardiomyocytes, high-content imaging, what pIC50 belongs to COc1cc(F)c2ncc(F)c(CCN3CC[C@H](NCc4cc5c(cn4)OCS5)[C@@H](O)C3)c2c1 ?
Result :: 6.70

Query :: Record lookup: for T. cruzi-infected H9C2 cardiomyocytes, high-content imaging, what pIC50 belongs to N#Cc1cccc(Nc2nccc(N3CCC(NS(=O)(=O)c4cccc(C#N)c4)CC3)n2)c1 ?
Result :: 5.49

Query :: Record lookup: for T. cruzi-infected H9C2 cardiomyocytes, high-content imaging, what pIC50 belongs to CN1C(=O)c2ccccc2Sc2ccc(NC(=O)NCc3ccco3)cc21 ?
Result :: 5.20

Query :: Record lookup: for T. cruzi-infected H9C2 cardiomyocytes, high-content imaging, what pIC50 belongs to O=C(NCCNc1noc(-c2ccc([N+](=O)[O-])cc2)n1)c1ccc(Cl)cc1 ?
Result :: 5.89

meta.source: PubChem BioAssay AID1159565
